B1: EEHEE_rd4_0003 (parent)
chain: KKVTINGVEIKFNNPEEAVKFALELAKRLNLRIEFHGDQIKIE

Variants of: B1
experimental details: folding stability dG (cDNA display proteolysis); higher = more stable
measurement setup: PBS, room temperature
measure: folding stability dG (kcal/mol)
Unit kcal/mol implied. Number only.

Item: G7S | folding stability dG: 1.85

// folding stability dG value for D38I : 2.49

Field folding stability dG (entry I42D ) reads 1.36

folding stability dG reading for N6T : 2.01

Noted for I10R : its folding stability dG reads 1.88

Value of measured folding stability dG for the entry G7F : 2.37

For E43D the variant record lists folding stability dG as 2.5

Summary for this variant, I42M : folding stability dG is 2.25

Lookup result for L23W ; measured folding stability dG: 2.35

Per the records, this variant ( A26L ) has folding stability dG equal to 2.52

folding stability dG for E9F is 2.53

The recorded folding stability dG for G37A is 2.39

The variant T4D showed folding stability dG equal to 1.7

Consider K41Y . Its measured folding stability dG is 2.94

Lookup result for I40P ; measured folding stability dG: 1.24

get_value(item= E16G , readout=folding stability dG) returns 2.48

Per the record, G37D has folding stability dG of 2.45

In plain terms, K2H has a documented folding stability dG of 2.46

Given item E17T , the value recorded as its folding stability dG is 2.26

# variant A18V ; its folding stability dG = 2.48

Entry under test: K11L . Its folding stability dG was 3.02

Looking up N6R , I found its folding stability dG recorded as 2.25

Briefly, folding stability dG measured for K27V : 2.24

Measured folding stability dG of D38C : 3.49

For E24S the variant record lists folding stability dG as 2.49

Reported folding stability dG ( R28V ) = 2.36

According to the records, this variant N13A displays folding stability dG of 2.8

Item: I10H | folding stability dG: 2.49

// field: folding stability dG; key: V19F ; value = 2.75

Looking up N14T , I see its folding stability dG listed as 3.02

Measured folding stability dG of E16R : 2.6

// recorded folding stability dG for I40C : 2.22

folding stability dG recorded for this variant, L31D , is 0.559

Record E34C . Reported folding stability dG: 3.19

For record V8G the listed folding stability dG is 1.78

Given item A26F , the value recorded as its folding stability dG is 2.56

Measured folding stability dG of L25T : 1.7

The variant I33R showed folding stability dG equal to 0.847

In plain terms, L23V has a documented folding stability dG of 2.29

The variant A22N showed folding stability dG equal to 0.81

Measured folding stability dG, E16P : 2.08

Summary for this variant, F21I : folding stability dG is 2.03

Lab book: folding stability dG of I10G noted as 1.21

Value of measured folding stability dG for the entry I5P : 1.79

folding stability dG measured on L29Q = 1.73

Field folding stability dG (entry I10L ) reads 2.6
